Reported Kd values for a set of compounds
- assayTarget: BRD4 43-463 Y97A (Homo sapiens, UniProt O60885, Y97A)
- assayDetails: competitive FP assay, BRD4 tandem construct Y97A
- Type: binding
- measurementSetup: Binding to BRD4 43-463 Y97A - FKBP12 Kd, absence of FKBP12
Field: numeric (µM). Do not append units.

Some solved cases for reference:
compound	propertyMeasured	observedMeasurement
Cc1sc2c(c1C)C(c1ccc(Cl)cc1)=NC(CC(=O)NCCOCCn1cc(COCC3CN(Cc4ccccn4)C(=O)C4CCCC3N4S(=O)(=O)c3cc(Cl)cc(Cl)c3)nn1)c1nnc(C)n1-2 (stereo not shown) [a1d]	Kd	0.13
Cc1sc2c(c1C)C(c1ccc(C#CCNC(=O)COCCn3cc(C4CN(Cc5ccccn5)C(=O)C5CCCC4N5S(=O)(=O)c4cc(Cl)cc(Cl)c4)nn3)cc1)=NC(CC(=O)OC(C)(C)C)c1nnc(C)n1-2 (stereo not shown) [b3c]	Kd	0.178
Cc1sc2c(c1C)C(c1ccc(Cl)cc1)=NC(CC(=O)N1CCC3(CC1)CC(n1cc(C4CN(Cc5ccccn5)C(=O)C5CCCC4N5S(=O)(=O)c4cc(Cl)cc(Cl)c4)nn1)C3)c1nnc(C)n1-2 (stereo not shown) [a13c]	Kd	0.8

[Q] Consider the compound shown here: Cc1sc2c(c1C)C(c1ccc(Cl)cc1)=NC(CC(=O)NCCOCCn1cc(COCC3CN(C(C)c4ccccn4)C(=O)C4CCCC3N4S(=O)(=O)c3cc(Cl)cc(Cl)c3)nn1)c1nnc(C)n1-2 (stereo not shown) [a1dj] What is its recorded Kd?
[A] 0.1
